Assay: pH-dependencies of solubility at 37°C
Format: physicochemical
Conditions: 20mM sodium acetate pH 4.5; 37°C; 0.5 h
Counter-ions that a name gives are not always drawn.
VALUE KIND: solubility at 0.5 h (mg/mL)

* N#CC[C@H](C1CCCC1)n1cc(-c2ncnc3[nH]ccc23)cn1 [Ruxolitinib oxalate] | 24.1
* N#CC[C@H](C1CCCC1)n1cc(-c2ncnc3[nH]ccc23)cn1 (stereo in doubt) [Ruxolitinib maleate] | 2.8

###

Experiment: pH-dependencies of solubility at 37°C
Format: physicochemical
Settings: pH 1.2, simulated gastric fluid, thermodynamic from solid; 0.1M HCl pH1.2; 37°C; 24 h
Excerpt: The intestinal tract obeys different pH ranges, which vary from pH 1 to 2 of the empty stomach, pH 3-5 for stomach filled with chyme, to pH 5-7.5 of the colon.
Structures can show the parent of a compound that is named as a salt.
Some molecules, each annotated with its measured solubility at 24 h.
VALUE KIND: solubility at 24 h (mg/mL)

• N#CC[C@H](C1CCCC1)n1cc(-c2ncnc3[nH]ccc23)cn1 [Ruxolitinib phosphate] = 44
• N#CC[C@H](C1CCCC1)n1cc(-c2ncnc3[nH]ccc23)cn1 (stereo in doubt) [Ruxolitinib maleate] = 12.2
• N#CC[C@H](C1CCCC1)n1cc(-c2ncnc3[nH]ccc23)cn1 [Ruxolitinib oxalate] = 57.4
